Reference for the values: patent US7407760B2

Notes on IC50 obtained with PrP^Sc (Mesocricetus auratus, UniProt P04273).
Sequence (P04273 23-231 limits assumed): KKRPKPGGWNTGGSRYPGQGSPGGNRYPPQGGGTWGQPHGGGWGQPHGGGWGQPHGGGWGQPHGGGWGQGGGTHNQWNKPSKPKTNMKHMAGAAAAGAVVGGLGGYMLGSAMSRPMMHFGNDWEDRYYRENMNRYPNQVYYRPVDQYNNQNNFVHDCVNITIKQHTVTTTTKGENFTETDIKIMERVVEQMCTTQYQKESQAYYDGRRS

compound	readoutKind	experimentalResult
[Cl][Cu][Cl] [CuCl2]	IC50	~1 µM

Consider now this further compound.
Field request: IC50 | item: [Cl-].[Cl-].[Zn+2] [ZnCl2]
~10 µM
